Biological target: T1, CRBN, Q96SW2;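 note: pooled lentiviral library of zinc finger degron-EGFP fusions in mCherry-positive Jurkat cells, FACS-sorted after compound exposure, with degron abundance counted by next-generation sequencing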
T1 chain: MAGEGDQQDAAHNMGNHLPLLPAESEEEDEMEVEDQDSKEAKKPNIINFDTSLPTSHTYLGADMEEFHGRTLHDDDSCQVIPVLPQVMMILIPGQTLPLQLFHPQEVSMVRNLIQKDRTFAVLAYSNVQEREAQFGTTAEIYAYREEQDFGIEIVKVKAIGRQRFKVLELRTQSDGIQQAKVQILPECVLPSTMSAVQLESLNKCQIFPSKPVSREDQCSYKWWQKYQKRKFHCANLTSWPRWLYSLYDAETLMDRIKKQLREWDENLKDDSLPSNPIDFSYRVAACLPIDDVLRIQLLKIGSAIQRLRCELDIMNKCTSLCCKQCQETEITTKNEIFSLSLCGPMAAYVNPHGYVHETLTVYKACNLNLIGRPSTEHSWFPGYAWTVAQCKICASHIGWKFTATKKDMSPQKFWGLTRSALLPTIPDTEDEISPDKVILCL
Experiment: log2 fold change of degron read counts, EGFP-low vs EGFP+ sorted cells (limma voom), compound-induced degradation; higher = more compound-induced degradation of the degron-EGFP fusion; degrons are variants of IKZF1/3 zinc finger 2; compound dose not given here
Details: Jurkat; 18 h; compound: compound 33 (diphenyl IMiD analogue)
Over roughly 8,300 sequences, “log2 fold change of degron read counts, EGFP-low vs EGFP+ sorted cells (limma voom), compound-induced degradation” has its median near -1.1; the highest 2% begin near 3.2. The full list was thinned out, with the highest values kept by preference.
Classification field: true (1) = log2 fold change of degron read counts at or over 0.7; false (0) = log2 fold change of degron read counts under 0.7.

>>> answer_label("FVCDVCGAPFTQKGNLLRHIKL [46F_47V_49D_50V_52G_53A_54P_55F_67L_, Q9UKT9]")
"true (1)"
>>> answer_label("FECNICGAPFTQKGNLLRHIKL [46F_47E_49N_50I_52G_53A_54P_55F_67L_, Q9UKT9]")
"true (1)"
>>> answer_label("LHCPICGFDCTQKGNLLRHIKL [46L_47H_49P_50I_52G_53F_54D_55C_67L_, Q9UKT9]")
"false (0)"
>>> answer_label("FTCNICGAPFTQKGNLLRHIKL [46F_47T_49N_50I_52G_53A_54P_55F_67L_, Q9UKT9]")
"true (1)"
